TEST PROTOCOL: qHTS assay to identify small molecule antagonists of the estrogen related receptor signaling pathway with the pleiotropic PPARgamma coactivator (PGC) from Tox21 10K library - cell viability counter screen (AID 1224840); note: nearly all actives have a fitted effect of over 40% in size
TEST CONDITIONS: PGC/ERR reporter cells viability, CellTiter-Fluor, 17.5 h; series mostly up to 92.4 µM
Results filed as inconclusive are left out. Calls of active or inactive are those of the source. Calls come from the whole dose curve; as a rule, active = well fitted cell-killing curve with a large enough effect in the repeat runs (not every such curve was filed as active); inconclusive = weak or mixed curves, or effect the other way; inactive = no such curve, though single readings can be large or run the other way.
One label from this list, please: 1 (yes) for active, 0 (no) for inactive

## Input Short answer needed: outcome of this test for "O.O.O.O=C([O-])[C@H]([O-])[C@@H]([O-])C(=O)[O-].O=C([O-])[C@H]([O-])[C@@H]([O-])C(=O)[O-].[K+].[K+].[Sb+3].[Sb+3]" ?
## Output 1 (yes)

## Input Try this molecule too: CC(O)C(=O)[O][Hg][c]1ccccc1 (stereo unspecified)
## Output 1 (yes)

## Input Quick one: "O=C(NC(=O)c1c(F)cccc1F)Nc1ccc(Oc2ccc(C(F)(F)F)cc2Cl)cc1F"
## Output 0 (no)

## Input Please give the result for "N#Cc1sc2c(=O)c3ccccc3c(=O)c=2sc1C#N" too.
## Output 1 (yes)

## Input Would you mind doing "CCCCCCCc1ccc(O)cc1" as well?
## Output 0 (no)

## Input Now the molecule "O=Cc1ccccc1"
## Output 0 (no)

## Input Can you check "Nc1ccccc1-c1ccccc1" next?
## Output 0 (no)

## Input Also need "CCC[CH2][Sn]([CH2]CCC)([CH2]CCC)[O][Sn]([CH2]CCC)([CH2]CCC)[CH2]CCC" , thanks.
## Output 1 (yes)

## Input Okay, and "CCCCC/C=C\C/C=C\C/C=C\C/C=C\CCCC(=O)NCC(=O)O" ?
## Output 0 (no)

## Input Now this one: "CC(=O)[O-].CC(=O)[O-].CC(=O)[O-].[Cr+3]"
## Output 0 (no)

## Input Another: "CNC(=O)CSP(=O)(OC)OC"
## Output 0 (no)

## Input Continue with "CC(C)=CCN1CC[C@@]2(C)c3cc(O)ccc3C[C@@H]1[C@@H]2C"
## Output 0 (no)

## Input Can you handle "O=c1[nH]c(Cl)c(Cl)cc1Cl" next?
## Output 0 (no)

## Input Please answer likewise for "O.O.O.O.O.O.O=S(=O)([O-])[O-].[Ni+2]"
## Output 0 (no)

## Input Also "O=C(Nc1ccc(F)cc1F)c1cccnc1Oc1cccc(C(F)(F)F)c1" ?
## Output 0 (no)

## Input Next up: "Cc1ccc2cc3c(ccc4ccccc43)c3c2c1CC3"
## Output 0 (no)

## Input How about "Nc1nc(N)nc(Cl)n1" ?
## Output 0 (no)

## Input Item: "CCC[CH2][Sn]([CH2]CCC)([CH2]CCC)[CH2]CCC"
## Output 1 (yes)

## Input Also check "c1ccc(Nc2ccc(Nc3ccccc3)cc2)cc1"
## Output 0 (no)

## Input Repeat with "CN(C)CCc1c[nH]c2ccccc12"
## Output 0 (no)

## Input Continue with CCCC[N+]1(C)CCCC1 (tested in a mixture with another compound)
## Output 0 (no)

## Input Repeat for the following molecule: "CC(C)N(C(=O)CCl)c1ccccc1"
## Output 1 (yes)

## Input // repeat for COC(=O)C(C)N(C(=O)c1ccco1)c1c(C)cccc1C (stereo unspecified) and report
## Output 0 (no)

## Input And the next one, "O=NN(CCO)CCO" ?
## Output 0 (no)

## Input Next record, please: "CCOP(=S)(OCC)Oc1cc(C)nc(N(CC)CC)n1"
## Output 0 (no)

## Input Next up: "CCNS(=O)(=O)C(F)(F)C(F)(F)C(F)(F)C(F)(F)C(F)(F)C(F)(F)C(F)(F)C(F)(F)F"
## Output 0 (no)

## Input Now give it for "C=CC(=C)C" too.
## Output 0 (no)

## Input Now consider "CC(C)N(C(=O)SC/C(Cl)=C/Cl)C(C)C" .
## Output 0 (no)

## Input # repeat for "[O]=[Cr](=[O])([OH])[O][Cr](=[O])(=[O])[OH]"
## Output 1 (yes)

## Input Same read-out for "Cc1ccccc1OP(=O)(Oc1ccccc1C)Oc1ccccc1C" ?
## Output 0 (no)

## Input Entry to check: CC(C)NCC(O)c1ccccc1Cl (stereo unspecified)
## Output 0 (no)

## Input Now the same for "CCC[CH2][Sn]([CH2]CCC)([O]C(C)=O)[O]C(C)=O"
## Output 1 (yes)

## Input Consider next the molecule "c1csc(-c2ccc(-c3cccs3)s2)c1" in the same way.
## Output 0 (no)

## Input Subsequent entry: "BrCC(Br)(Br)Br"
## Output 0 (no)

## Input Consider next the molecule "ClC(Cl)C(Cl)(Cl)Cl" in the same way.
## Output 0 (no)

## Input For "CN1CCc2cc(Cl)c(O)cc2[C@H]2c3ccccc3CC[C@@H]21" then?
## Output 0 (no)

----------
ASSAYED SYSTEM: Thyrotropin receptor (Homo sapiens) (UniProt P16473)
Sequence (P16473 whole entry, looked up): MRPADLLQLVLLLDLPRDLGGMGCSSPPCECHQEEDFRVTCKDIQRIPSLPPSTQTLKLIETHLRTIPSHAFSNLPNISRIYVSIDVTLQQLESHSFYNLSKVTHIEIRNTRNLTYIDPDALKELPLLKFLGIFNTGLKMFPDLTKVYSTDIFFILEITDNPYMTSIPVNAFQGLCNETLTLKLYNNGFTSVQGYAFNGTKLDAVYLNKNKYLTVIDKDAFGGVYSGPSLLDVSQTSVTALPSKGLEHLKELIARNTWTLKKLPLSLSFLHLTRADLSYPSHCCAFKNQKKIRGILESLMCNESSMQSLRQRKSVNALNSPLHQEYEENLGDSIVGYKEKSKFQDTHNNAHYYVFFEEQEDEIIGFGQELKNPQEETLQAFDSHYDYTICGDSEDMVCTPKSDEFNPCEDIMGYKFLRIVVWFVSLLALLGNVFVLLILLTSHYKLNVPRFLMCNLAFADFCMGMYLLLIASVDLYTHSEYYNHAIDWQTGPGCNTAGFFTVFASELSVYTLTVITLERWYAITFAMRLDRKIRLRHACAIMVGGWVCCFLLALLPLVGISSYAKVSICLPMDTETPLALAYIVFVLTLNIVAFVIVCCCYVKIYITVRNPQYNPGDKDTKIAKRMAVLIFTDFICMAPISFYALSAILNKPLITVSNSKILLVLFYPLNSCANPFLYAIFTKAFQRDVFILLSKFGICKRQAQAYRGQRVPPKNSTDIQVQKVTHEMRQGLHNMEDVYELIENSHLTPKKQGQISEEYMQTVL
TEST PROTOCOL: qHTS assay to identify small molecule antagonists of the thyroid stimulating hormone receptor (TSHR) signaling pathway (AID 1259385); note: nearly all actives have a fitted effect of over 20% in size; note: potency is the fitted concentration of half-maximal effect
TEST CONDITIONS: TSHR-HEK293 cAMP HTRF, TSH-stimulated antagonist mode; series mostly up to 92.4 µM
Results filed as inconclusive are left out. Calls of active or inactive are those of the source. Calls come from the whole dose curve.
READOUT KIND: Potency

Some molecules with known Potency results, for comparison:
molecule=Cc1c([N+](=O)[O-])c(C)c([N+](=O)[O-])c(C(C)(C)C)c1[N+](=O)[O-] assayed_system="Thyrotropin receptor (Homo sapiens) (UniProt P16473)" result=inactive
molecule=CC(C)=CCN1CC[C@@]2(C)c3cc(O)ccc3C[C@@H]1[C@@H]2C assayed_system="Thyrotropin receptor (Homo sapiens) (UniProt P16473)" result=inactive
molecule=COP(=S)(OC)Oc1ccc([N+](=O)[O-])c(C)c1 assayed_system="Thyrotropin receptor (Homo sapiens) (UniProt P16473)" result=inactive
molecule=Cc1ccc([N+](=O)[O-])[c]2c1[O][Hg]2 assayed_system="Thyrotropin receptor (Homo sapiens) (UniProt P16473)" result="21.1 µM (active)"
molecule=[O]=[Cr](=[O])([OH])[O][Cr](=[O])(=[O])[OH] assayed_system="Thyrotropin receptor (Homo sapiens) (UniProt P16473)" result=inactive
molecule=CCN(CC)C(=O)N[C@@H]1C=C2c3cccc4[nH]cc(c34)C[C@@H]2N(C)C1 assayed_system="Thyrotropin receptor (Homo sapiens) (UniProt P16473)" result=inactive

## Input Param item = "CCCCCCCc1ccc(O)cc1" ; retrieve measured Potency.
## Output inactive

## Input Query "CSC(C)(C)/C=N/O" next
## Output inactive

## Input Query "c1ccc2c(c1)cc1ccc3cccc4ccc2c1c34" next
## Output inactive

## Input Let us now turn to "Cc1c([N+](=O)[O-])cc2c(c1[N+](=O)[O-])C(C)(C)CC2(C)C"
## Output inactive

## Input Would you mind doing "N#Cc1c[nH]cc1-c1cccc2c1OC(F)(F)O2" as well?
## Output inactive

## Input # iterate: CC(Cc1ccc(OCC(=O)O)cc1)NCC(O)c1csc(C(F)(F)F)n1 (stereo not drawn)
## Output inactive

## Input Consider next the molecule "COc1ccc2c3c1O[C@H]1[C@H](O)CC[C@H]4[C@@H](C2)N(C)CC[C@@]341" in the same way.
## Output inactive

## Input Now the molecule CC(Cc1ccc2c(c1)OCO2)NO (stereo not drawn)
## Output inactive

## Input Also check "N#Cc1ccc(N(CC(N)=O)CC(F)(F)F)cc1C(F)(F)F"
## Output inactive

----------
TEST PROTOCOL: qHTS RealTime-Glo MT Cell Viability Assay in HEK293 cells - 24 hour (AID 1224886); note: nearly all actives have a fitted effect of over 50% in size
TEST CONDITIONS: RealTime-Glo luminescence; series mostly up to 76.8 µM
Records with an inconclusive call do not appear. The source made the active and inactive calls. Calls come from the whole dose curve; as a rule, active = well fitted cell-killing curve with a large enough effect in the repeat runs; inconclusive = weak or mixed curves, or effect the other way; inactive = flat fitted curve, though single readings scatter.
Answer with one of the outcomes true (1) (active), false (0) (inactive)

## Input Could you check what this test reported for "COc1nc(C)nc(NC(=O)NS(=O)(=O)c2ccccc2Cl)n1" ?
## Output false (0)

## Input // repeat for CCn1cc[n+](C)c1 (tested in a mixture with another compound) and report
## Output false (0)

## Input Also "c1ccc2nc(N3CCNCC3)ccc2c1" ?
## Output false (0)

## Input Likewise for "N#Cc1sc2c(=O)c3ccccc3c(=O)c=2sc1C#N" ?
## Output true (1)

## Input Please answer likewise for "Nc1ccc(Cl)cc1C(=O)c1ccccc1F"
## Output false (0)

## Input Then "COP(=S)(OC)Oc1nc(Cl)c(Cl)cc1Cl" ?
## Output false (0)

## Input What about "COc1ccc2c3c1O[C@H]1[C@H](O)CC[C@H]4[C@@H](C2)N(C)CC[C@@]341" ?
## Output false (0)

Reference source for all entries: PubChem BioAssay (Tox21)
